Each entry below carries its recorded pIC50.
Biological target: recombinant MNK1 (Homo sapiens (Human))
Sequence (Q9BUB5 whole entry): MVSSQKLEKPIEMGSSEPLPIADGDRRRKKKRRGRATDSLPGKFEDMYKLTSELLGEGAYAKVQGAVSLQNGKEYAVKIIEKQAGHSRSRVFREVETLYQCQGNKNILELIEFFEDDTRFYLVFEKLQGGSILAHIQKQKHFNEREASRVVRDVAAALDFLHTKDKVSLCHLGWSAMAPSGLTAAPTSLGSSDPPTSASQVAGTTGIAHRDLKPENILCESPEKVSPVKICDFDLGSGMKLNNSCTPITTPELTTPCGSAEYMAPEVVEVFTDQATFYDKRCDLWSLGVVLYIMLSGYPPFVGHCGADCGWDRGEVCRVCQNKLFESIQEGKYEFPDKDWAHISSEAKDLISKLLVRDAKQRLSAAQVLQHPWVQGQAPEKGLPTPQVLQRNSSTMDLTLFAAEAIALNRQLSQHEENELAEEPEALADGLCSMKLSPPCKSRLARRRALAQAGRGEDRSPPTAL
Assay: MNK Biochemical Enzymatic Assay (ADP-Glo kinase assay), MNK1
Settings: 10 nM recombinant MNK1, 300 μM ATP
pIC50: −log10 of the molar value.

Lab note: need pIC50 with recombinant MNK1 (Homo sapiens (Human)) for entry "O=C1NCc2cc(-n3ccc4cncnc43)ccc21" , please look it up.
5.00 to 7.00

Find pIC50 (recombinant MNK1 (Homo sapiens (Human))) for the entry "Cn1cc(-c2cn(-c3ccc4c(c3)CNC4=O)c3ncncc23)cn1"
7.00 to 8.00

Entry CC1NC(=O)c2c(Cl)cc(-n3ccc4cncnc43)cc21 (centres unmarked) , system recombinant MNK1 (Homo sapiens (Human)): what pIC50 was measured?
> 8.00

Query for recombinant MNK1 (Homo sapiens (Human)): what pIC50 does the record show for Cc1cc(-n2ccc3cncnc32)cc2c1C(=O)NC2C (centres unmarked) ?
7.00 to 8.00

Form: Entry = "CC1(C)NC(=O)c2c(Cl)cc(-n3ccc4cncnc43)cc21" | System = recombinant MNK1 (Homo sapiens (Human)) | pIC50 = ____
> 8.00

====

Target: recombinant MNK2 (Homo sapiens (Human), UniProt Q9HBH9)
Sequence (Q9HBH9 whole entry): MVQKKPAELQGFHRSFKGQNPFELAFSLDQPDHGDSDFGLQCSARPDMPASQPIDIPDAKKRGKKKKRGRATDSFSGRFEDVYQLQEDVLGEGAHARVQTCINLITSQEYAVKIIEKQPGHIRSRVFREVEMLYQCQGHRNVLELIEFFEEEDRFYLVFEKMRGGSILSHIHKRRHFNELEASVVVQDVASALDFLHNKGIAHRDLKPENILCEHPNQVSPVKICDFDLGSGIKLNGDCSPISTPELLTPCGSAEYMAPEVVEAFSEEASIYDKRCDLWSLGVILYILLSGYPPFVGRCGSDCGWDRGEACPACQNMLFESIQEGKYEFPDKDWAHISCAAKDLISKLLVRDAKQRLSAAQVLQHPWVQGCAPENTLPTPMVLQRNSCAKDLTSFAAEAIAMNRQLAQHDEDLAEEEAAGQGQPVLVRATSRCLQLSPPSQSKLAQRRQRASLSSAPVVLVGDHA
Test: MNK Biochemical Enzymatic Assay (ADP-Glo kinase assay), MNK2
Result Type: IC50

Would you please look over these solved cases?
                                   molecule   recorded_value
0  Cc1cc(-n2ccc3cncnc32)cc2c1C(=O)NC2C (centres unmarked)     10 to 100 nM
1           O=C1NCc2cc(-n3ccc4cncnc43)ccc21  100 to 10000 nM
2           c1ncc2ccn(-c3ccc4c(c3)CSC4)c2n1  100 to 10000 nM
3          Nc1ncnc2c1ccn2-c1ccc2c(c1)CNC2=O  100 to 10000 nM

Now turn to the next molecule.
Entry "O=C1NCc2nc(-n3ccc4cnccc43)ccc21" has what IC50?
100 to 10000 nM

====

Target: recombinant MNK2 (Homo sapiens (Human), UniProt Q9HBH9)
Assay: MNK Biochemical Enzymatic Assay (ADP-Glo kinase assay), MNK2
pIC50: −log10 of the molar value.
Result Type: pIC50

Consider the following illustrative entries.
                                   compound  recorded_value
0  O=C1NCc2cc(-n3cc(-c4ccccc4Cl)c4cncnc43)ccc21 [Cpd. No. 24]    5.00 to 7.00
1  N#Cc1ccccc1-c1cn(-c2ccc3c(c2)CNC3=O)c2ncncc12 [Cpd. No. 26]    5.00 to 7.00
2  O=C1NC2(CCCCC2)c2cc(-n3ccc4cncnc43)cc(Cl)c21 [Cpd. No. 29]    7.00 to 8.00
3  O=C1NCc2cc(-n3cnc4cncnc43)ccc21 [Cpd. No. 16, 5-(9H-purin-9-yl) isoindolin-1-one]    5.00 to 7.00

Turning now to a further record.
For the compound shown here, CC1NC(=O)c2c(Cl)cc(-n3ccc4cncnc43)cc21 (centres unmarked) [Cpd. No. 17] , give the reported pIC50.
7.00 to 8.00
